molecular target: ATP-binding cassette sub-family C member 2 (Rattus norvegicus); assay: TP_TRANSPORTER: inhibition of DNP-SG uptake in bile canalicular membrane vesicles from SD rat
Sequence (Q63120 whole entry): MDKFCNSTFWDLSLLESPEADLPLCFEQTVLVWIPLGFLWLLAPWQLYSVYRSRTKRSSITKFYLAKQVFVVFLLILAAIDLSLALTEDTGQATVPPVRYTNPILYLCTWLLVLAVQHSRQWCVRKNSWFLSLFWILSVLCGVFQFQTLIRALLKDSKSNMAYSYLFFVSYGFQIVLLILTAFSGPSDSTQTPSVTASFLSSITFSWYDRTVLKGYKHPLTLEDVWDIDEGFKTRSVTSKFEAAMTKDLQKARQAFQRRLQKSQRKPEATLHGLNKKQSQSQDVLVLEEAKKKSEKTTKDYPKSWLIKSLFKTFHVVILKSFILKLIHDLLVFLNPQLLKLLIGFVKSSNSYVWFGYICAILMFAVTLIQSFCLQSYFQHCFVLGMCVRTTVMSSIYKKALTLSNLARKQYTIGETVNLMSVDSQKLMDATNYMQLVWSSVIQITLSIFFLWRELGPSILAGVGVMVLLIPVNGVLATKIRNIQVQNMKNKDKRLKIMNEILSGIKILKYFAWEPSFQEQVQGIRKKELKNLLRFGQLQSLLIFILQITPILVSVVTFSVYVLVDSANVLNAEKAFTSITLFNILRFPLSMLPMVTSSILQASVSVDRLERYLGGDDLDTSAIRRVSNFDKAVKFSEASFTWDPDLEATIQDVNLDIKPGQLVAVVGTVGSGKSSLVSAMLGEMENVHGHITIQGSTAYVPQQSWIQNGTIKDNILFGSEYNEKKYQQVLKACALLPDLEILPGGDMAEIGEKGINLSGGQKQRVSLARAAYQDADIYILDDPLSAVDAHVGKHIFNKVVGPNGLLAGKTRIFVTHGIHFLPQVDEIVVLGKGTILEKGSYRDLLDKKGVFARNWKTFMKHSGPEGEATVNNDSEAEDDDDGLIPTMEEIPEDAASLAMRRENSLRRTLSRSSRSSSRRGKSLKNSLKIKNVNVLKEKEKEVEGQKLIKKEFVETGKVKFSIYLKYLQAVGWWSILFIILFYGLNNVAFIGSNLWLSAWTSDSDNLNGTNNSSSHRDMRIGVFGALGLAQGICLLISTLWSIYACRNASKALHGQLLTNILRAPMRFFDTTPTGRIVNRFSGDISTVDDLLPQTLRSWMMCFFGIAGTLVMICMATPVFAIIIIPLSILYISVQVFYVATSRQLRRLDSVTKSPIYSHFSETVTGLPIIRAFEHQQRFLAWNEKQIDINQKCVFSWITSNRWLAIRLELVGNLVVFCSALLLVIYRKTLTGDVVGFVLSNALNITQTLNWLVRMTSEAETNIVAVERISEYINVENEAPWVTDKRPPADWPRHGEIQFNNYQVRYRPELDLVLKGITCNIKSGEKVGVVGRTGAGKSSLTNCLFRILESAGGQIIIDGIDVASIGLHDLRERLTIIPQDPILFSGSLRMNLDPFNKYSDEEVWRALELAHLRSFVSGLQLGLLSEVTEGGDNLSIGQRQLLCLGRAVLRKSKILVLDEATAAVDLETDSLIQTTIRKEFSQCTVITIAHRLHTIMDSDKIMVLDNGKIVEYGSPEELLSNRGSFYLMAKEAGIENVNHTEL
recorded_endpoint: Ki (µM)

CCc1c2c(nc3ccc(O)cc13)-c1cc([C@@](O)(CC)C(=O)O)c(CO)c(=O)n1C2 ... 18.3
CCc1c2c(nc3ccc(OC(=O)N4CCC(N5CCCCC5)CC4)cc13)-c1cc([C@@](O)(CC)C(=O)O)c(CO)c(=O)n1C2 ... 96.6
CCc1c2c(nc3ccc(O[C@@H]4O[C@H](C(=O)O)[C@@H](O)[C@H](O)[C@H]4O)cc13)-c1cc([C@@](O)(CC)C(=O)O)c(CO)c(=O)n1C2 ... 1.03
CCc1c2c(nc3ccc(OC[C@@H]4O[C@H](C(=O)O)[C@@H](O)[C@H](O)[C@H]4O)cc13)-c1cc3c(c(=O)n1C2)COC(=O)[C@]3(O)CC ... 1.62
